Data origin, for the record: PubChem BioAssay (Tox21)

- procedureText: qHTS assay to identify small molecule antagonists of the retinoic acid receptor (RAR) signaling pathway (AID 1159552; also: nearly all actives have a fitted effect of over 50% in size)
- experimentalContext: C3RL4 RARE luciferase reporter, retinol-stimulated, 6 h; series mostly up to 92.4 µM
Records with an inconclusive call do not appear. Activity calls are given as the source filed them. Calls follow the shape of the dose curve; as a rule, active = well fitted inhibition curve with a large enough effect in the repeat runs; inconclusive = weak or mixed curves, or effect the other way; inactive = no such curve, though single readings can be large or run the other way.
Labels: active, inactive

> print(dat)
                                    compound  qualitativelabel
 1                                  CCC(C)=O          inactive
 2                     Brc1ccc(-c2ccccc2)cc1          inactive
 3                Cc1ccc(N)c([N+](=O)[O-])c1          inactive
 4  CC1COC(Cn2cncn2)(c2ccc(Oc3ccc(Cl)cc3)cc2Cl)O1 (configuration not stated)          inactive
 5  c1cc(OCC2CO2)cc(OCC2CO2)c1 (configuration not stated)          inactive
 6                   Nc1cccc([N+](=O)[O-])c1          inactive
 7  CC(C)(C)OCC1CO1 (configuration not stated)          inactive
 8    COc1ccc(C(c2ccc(OC)cc2)C(Cl)(Cl)Cl)cc1          inactive
 9  O=C1C(I)=CC(=C(c2cc(I)c(O)c(I)c2)c2ccccc2C(=O)O)C=C1I          inactive
10       O=C1OC(=O)c2c(Cl)c(Cl)c(Cl)c(Cl)c21          inactive
11              C=CCOC(=O)c1ccccc1C(=O)OCC=C          inactive
12                     Clc1ccccc1-c1ccccc1Cl          inactive
13                   Fc1c(F)c(F)c(Br)c(F)c1F          inactive
14  ClC1=C(Cl)[C@]2(Cl)[C@@H]3[C@@H](Cl)[C@H]4O[C@H]4[C@@H]3C1(Cl)C2(Cl)Cl            active
15  CCCCC(CC)COC(=O)CCCCC(=O)OCC(CC)CCCC (configuration not stated)          inactive
16             Nc1ccc2c3c(cccc13)-c1ccccc1-2          inactive
17  CCCCC(CC)COC(=O)c1ccc(C(=O)OCC(CC)CCCC)cc1 (configuration not stated)          inactive
18     O=C(Nc1ccccc1-c1ccc(Cl)cc1)c1cccnc1Cl          inactive
19  Cc1nnc2n1-c1sc(CCc3ccc(CC(C)C)cc3)cc1C(c1ccccc1Cl)=NC2C (configuration not stated)            active
20           O=S(=O)(C(Cl)(Cl)Cl)C(Cl)(Cl)Cl            active
21        O=[N+]([O-])c1c(Cl)c(Cl)cc(Cl)c1Cl          inactive
22                      O=C(c1ccccc1)C(Cl)Cl            active
23                 Nc1ccc(Cl)cc1[N+](=O)[O-]          inactive
24                       Oc1c(Cl)ccc(Cl)c1Cl          inactive
25                     Nc1ccccc1[N+](=O)[O-]          inactive
26                  Cc1cccc(C)c1[N+](=O)[O-]          inactive
27   Cc1ccc(N(SC(F)(Cl)Cl)S(=O)(=O)N(C)C)cc1            active

###

- targetOrTestSystem: Acetylcholinesterase (Homo sapiens) (UniProt P22303)
- Sequence (P22303 whole entry, looked up): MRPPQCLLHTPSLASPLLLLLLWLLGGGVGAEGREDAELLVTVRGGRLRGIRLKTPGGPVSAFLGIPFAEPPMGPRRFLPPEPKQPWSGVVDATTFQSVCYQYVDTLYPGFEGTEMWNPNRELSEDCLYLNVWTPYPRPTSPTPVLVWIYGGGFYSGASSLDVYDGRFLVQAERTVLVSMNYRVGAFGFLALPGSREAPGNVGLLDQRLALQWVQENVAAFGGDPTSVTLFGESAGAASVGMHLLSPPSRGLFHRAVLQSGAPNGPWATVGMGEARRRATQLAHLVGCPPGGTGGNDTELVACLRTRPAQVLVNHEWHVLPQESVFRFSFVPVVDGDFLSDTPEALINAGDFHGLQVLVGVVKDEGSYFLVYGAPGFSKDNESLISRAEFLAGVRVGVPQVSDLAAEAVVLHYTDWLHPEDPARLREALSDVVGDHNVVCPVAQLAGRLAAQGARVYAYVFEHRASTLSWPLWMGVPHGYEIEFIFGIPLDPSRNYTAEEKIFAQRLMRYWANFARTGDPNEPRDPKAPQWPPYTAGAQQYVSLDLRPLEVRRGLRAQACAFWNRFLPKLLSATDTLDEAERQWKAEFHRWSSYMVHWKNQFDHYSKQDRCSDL
- procedureText: Acetylcholinesterase (AChE) small molecule antagonists: fluorescence cell-based qHTS assay (AID 1347398); also: nearly all actives have a fitted effect of over 50% in size
- experimentalContext: SH-SY5Y cells; AChE activity; series mostly up to 115 µM
Records with an inconclusive call do not appear. Active and inactive are the calls of the source. Calls follow the shape of the full dose curve.
Labels: true for active, false for inactive

> print(dat)
                                   compound                        targetortestsystem  qualitativelabel
1                        CC(C)CCCCCOC(=O)CS  Acetylcholinesterase (Homo sapiens) (UniProt P22303)             false
2                    Cc1cc(=O)oc2cc(O)ccc12  Acetylcholinesterase (Homo sapiens) (UniProt P22303)             false
3  NS(=O)(=O)c1cc2c(cc1Cl)NC(C1CC3C=CC1C3)NS2(=O)=O (configuration not stated)  Acetylcholinesterase (Homo sapiens) (UniProt P22303)             false
4                 CCCCCCCCCCCCCC[n+]1ccccc1  Acetylcholinesterase (Homo sapiens) (UniProt P22303)              true
5  CCCC(C)C(=O)OCC (configuration not stated)  Acetylcholinesterase (Homo sapiens) (UniProt P22303)             false
6                  CCCO[Si](OCCC)(OCCC)OCCC  Acetylcholinesterase (Homo sapiens) (UniProt P22303)             false
7           CC(C)(C#N)Nc1nc(Cl)nc(NC2CC2)n1  Acetylcholinesterase (Homo sapiens) (UniProt P22303)             false

###

- targetOrTestSystem: Nuclear receptor subfamily 1 group I member 2 (Homo sapiens)
- procedureText: Human pregnane X receptor (PXR) activation by small molecules, qHTS assay (AID 1346985); also: nearly all actives have a fitted effect of over 40% in size
- experimentalContext: DPX-2 HepG2 CYP3A4-luciferase, 24 h; series mostly up to 38.3 µM
Records with an inconclusive call do not appear. The source made the active and inactive calls. Calls come from the whole dose curve; as a rule, active = well fitted activation curve with a large enough effect in the repeat runs; inconclusive = weak or mixed curves; inactive = flat fitted curve, though single readings scatter.
Labels: active, inactive

compound	targetOrTestSystem	qualitativeLabel
CN[C@@H]1C[C@@H](c2ccc(Cl)c(Cl)c2)c2ccccc21	Nuclear receptor subfamily 1 group I member 2 (Homo sapiens)	inactive
C#CCN1CC(=O)N(COC(=O)C2C(C=C(C)C)C2(C)C)C1=O (stereo not given)	Nuclear receptor subfamily 1 group I member 2 (Homo sapiens)	inactive
[2H]C([2H])([2H])[C@H](N)Cc1ccccc1	Nuclear receptor subfamily 1 group I member 2 (Homo sapiens)	inactive
CN1c2ccccc2C(NCCCCCCC(=O)O)c2ccc(Cl)cc2S1(=O)=O (stereo not given)	Nuclear receptor subfamily 1 group I member 2 (Homo sapiens)	active
Cc1cccc(C(C)c2cnc[nH]2)c1C (stereo not given)	Nuclear receptor subfamily 1 group I member 2 (Homo sapiens)	inactive
CC(N)Cc1ccc(O)cc1 (stereo not given)	Nuclear receptor subfamily 1 group I member 2 (Homo sapiens)	inactive
CO[C@H]1[C@@H](O)C[C@H](O[C@H]2[C@@H](O)C[C@H](O[C@H]3[C@@H](O)C[C@H](O[C@H]4CC[C@@]5(C)[C@H](CC[C@@H]6[C@@H]5C[C@@H](O)[C@]5(C)[C@@H](C7=CC(=O)OC7)CC[C@]65O)C4)O[C@@H]3C)O[C@@H]2C)O[C@@H]1C	Nuclear receptor subfamily 1 group I member 2 (Homo sapiens)	inactive
CCNCC(O)c1cccc(O)c1 (stereo not given)	Nuclear receptor subfamily 1 group I member 2 (Homo sapiens)	inactive
c1ccc(C2(N3CCCC3)CCCCC2)cc1	Nuclear receptor subfamily 1 group I member 2 (Homo sapiens)	active
COC1=CC=C2[C@H]3Cc4ccc(OC)c5c4[C@@]2(CCN3C)[C@H]1O5	Nuclear receptor subfamily 1 group I member 2 (Homo sapiens)	inactive
CCNC(C)Cc1cccc(C(F)(F)F)c1 (stereo not given)	Nuclear receptor subfamily 1 group I member 2 (Homo sapiens)	inactive
CCCN1CCC[C@H](c2cccc(O)c2)C1	Nuclear receptor subfamily 1 group I member 2 (Homo sapiens)	inactive
CCOc1ccc2c3c1O[C@H]1[C@@H](O)C=C[C@H]4[C@@H](C2)N(C)CC[C@@]341	Nuclear receptor subfamily 1 group I member 2 (Homo sapiens)	inactive
C=CCN1CC[C@]23c4c5ccc(O)c4O[C@H]2[C@@H](O)C=C[C@H]3[C@H]1C5	Nuclear receptor subfamily 1 group I member 2 (Homo sapiens)	inactive
C[C@@H](CO)NC(=O)[C@@H]1C=C2c3cccc4[nH]cc(c34)C[C@H]2N(C)C1	Nuclear receptor subfamily 1 group I member 2 (Homo sapiens)	inactive
NCC(O)c1cccc(O)c1 (stereo not given)	Nuclear receptor subfamily 1 group I member 2 (Homo sapiens)	inactive
CCON=O	Nuclear receptor subfamily 1 group I member 2 (Homo sapiens)	inactive
COc1ccc2c3c1O[C@H]1[C@@H](O)C=C[C@H]4[C@@H](C2)NCC[C@@]341	Nuclear receptor subfamily 1 group I member 2 (Homo sapiens)	inactive
CCCCC[C@@H](O)C1C(=O)OC(C)[C@H](O)/C=C/C=C/C=C/C=C/C=C(\C)C(O)C(O)C(O)C[C@H](O)C[C@H](O)C[C@H](O)C[C@H](O)C[C@@H]1O (stereo not given in full)	Nuclear receptor subfamily 1 group I member 2 (Homo sapiens)	inactive
CC(=O)Oc1ccc2c3c1O[C@H]1[C@@H](OC(C)=O)C=C[C@H]4[C@@H](C2)N(C)CC[C@@]341	Nuclear receptor subfamily 1 group I member 2 (Homo sapiens)	inactive
